target entity: Menin (Homo sapiens) (UniProt O00255)
Sequence (O00255 whole entry, looked up): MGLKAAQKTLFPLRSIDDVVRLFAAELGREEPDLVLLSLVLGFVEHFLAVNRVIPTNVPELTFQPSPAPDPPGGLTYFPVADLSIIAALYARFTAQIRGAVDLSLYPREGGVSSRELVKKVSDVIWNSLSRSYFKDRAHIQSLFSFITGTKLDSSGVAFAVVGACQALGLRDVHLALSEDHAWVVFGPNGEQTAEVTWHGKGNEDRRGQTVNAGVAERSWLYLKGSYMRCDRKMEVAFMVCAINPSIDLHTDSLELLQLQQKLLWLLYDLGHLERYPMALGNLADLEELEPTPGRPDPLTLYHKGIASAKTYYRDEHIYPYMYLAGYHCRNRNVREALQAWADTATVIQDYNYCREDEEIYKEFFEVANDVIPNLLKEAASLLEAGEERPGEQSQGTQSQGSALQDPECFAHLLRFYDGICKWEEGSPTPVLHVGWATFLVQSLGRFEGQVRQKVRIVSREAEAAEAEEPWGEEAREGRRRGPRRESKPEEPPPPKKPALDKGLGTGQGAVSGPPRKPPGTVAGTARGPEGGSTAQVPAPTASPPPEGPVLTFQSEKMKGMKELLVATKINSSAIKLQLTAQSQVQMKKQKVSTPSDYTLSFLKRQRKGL
assay remarks: qHTS Assay for Inhibitors Targeting the Menin-MLL Interaction in MLL Related Leukemias: Competition With Texas Red Labeled MLL-derived Mutant Peptide
details: fluorescence polarization; series mostly up to 61.6 µM
The campaign covered roughly 270,000 compounds. About 620 (0.23%) were called active. About 12% were inconclusive and are not listed. The call rests on the fitted dose curve; in most records, active means well fitted inhibition curve with a large enough effect in the polarisation, with a control signal flat (not every such curve was filed as active); inconclusive means small, poorly fitted or top-dose-only effect, or effect the other way, or a change in a side signal; inactive means no such curve, though single readings can be large or run the other way; the % refers to the polarisation. Shown is part of a subset that was picked to be rich in actives.
Labels: active, inactive

INSERT INTO assay_data (molecule, target_entity, cat) VALUES
  ('CO[C@H]1[C@@H](O)[C@@H](C)O[C@H](O[C@H]2[C@H](Oc3cccc4c(O)c5c(=O)oc6ccc(C)c7c(=O)oc(c34)c5c67)O[C@H](C)[C@H](O)[C@@H]2O)[C@@H]1O', 'Menin (Homo sapiens) (UniProt O00255)', 'inactive'),
  ('CC[C@H]1CN2CCc3cc(OC)c(OC)cc3[C@@H]2C[C@@H]1C[C@H]1NCCc2cc(OC)c(OC)cc21', 'Menin (Homo sapiens) (UniProt O00255)', 'active'),
  ('CC(=O)[O][Sn]([c]1ccccc1)([c]1ccccc1)[c]1ccccc1', 'Menin (Homo sapiens) (UniProt O00255)', 'inactive'),
  ('CCN(CC)c1nc(C)cc(OP(=S)(OC)OC)n1', 'Menin (Homo sapiens) (UniProt O00255)', 'inactive'),
  ('C[C@@H]1C[C@H]2CC[C@H](O2)[C@H](C)C(=O)O[C@@H](C)C[C@@H]2CC[C@@H](O2)[C@@H](C)C(=O)O[C@H](C)C[C@H]2CC[C@H](O2)[C@H](C)C(=O)O[C@@H](C)C[C@@H]2CC[C@@H](O2)[C@@H](C)C(=O)O1', 'Menin (Homo sapiens) (UniProt O00255)', 'inactive'),
  ('C[C@]12O[C@H](C[C@@]1(O)C(=O)O)n1c3ccccc3c3c4c(c5c6ccccc6n2c5c31)CNC4=O', 'Menin (Homo sapiens) (UniProt O00255)', 'inactive'),
  ('O=C1CCc2cccc3c2N1CC3', 'Menin (Homo sapiens) (UniProt O00255)', 'inactive'),
  ('COC([CH2][Hg])CNC(=O)c1ccccc1OCC(=O)O (stereo not drawn)', 'Menin (Homo sapiens) (UniProt O00255)', 'inactive');
